Quick list: IC50 per entry.
- target-or-system: D1 (Homo sapiens)
- Sequence (P21728 whole entry): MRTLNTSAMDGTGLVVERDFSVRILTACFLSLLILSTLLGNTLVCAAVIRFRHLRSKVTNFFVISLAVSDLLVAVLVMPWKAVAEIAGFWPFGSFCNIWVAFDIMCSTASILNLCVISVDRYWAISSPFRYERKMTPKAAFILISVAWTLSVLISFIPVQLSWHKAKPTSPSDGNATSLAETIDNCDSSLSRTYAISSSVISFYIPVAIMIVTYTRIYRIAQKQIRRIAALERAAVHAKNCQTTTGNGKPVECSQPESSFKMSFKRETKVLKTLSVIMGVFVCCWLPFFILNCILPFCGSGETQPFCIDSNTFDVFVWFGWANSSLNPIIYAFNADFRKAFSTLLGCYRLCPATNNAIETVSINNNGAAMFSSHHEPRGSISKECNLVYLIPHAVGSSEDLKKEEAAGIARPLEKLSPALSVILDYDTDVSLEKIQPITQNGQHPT
- test-description: Radioligand binding, dopamine D1
- test-settings: Table 4; read-out: Binding affinity, IC50 (nM) D1
Please give a number only; it is taken to be in nM.

Worked examples follow.
- molecule: "CC1(c2ccc(O)cc2)C(=O)c2c(N3CCNCC3)cc(Cl)cc2N(Cc2cccc(N)c2)C1=O (stereo not shown)"
  measurement-unit: "nM"
  measured: 6950
- molecule: "CCN(CC)c1ccc(C2(C)C(=O)c3c(N4CCNCC4)cc(Cl)cc3N(Cc3ccccc3)C2=O)cc1 (stereo not shown)"
  measurement-unit: "nM"
  measured: 8410
- molecule: "COc1ccc(C2(C)C(=O)c3c(N4CCNCC4)cc(Cl)cc3N(Cc3nc4ccccc4[nH]3)C2=O)cc1 (stereo not shown)"
  measurement-unit: "nM"
  measured: 6350

Attention now shifts to the item below.
# IC50 lookup, item CN1CCN(c2cc(Cl)cc3c2C(=O)C(C)(c2ccc(O)cc2)C(=O)N3Cc2cccc([N+](=O)[O-])c2)CC1 (stereo not shown)
7040
